test system: peptide-specific IgG in sera of cancer patients and healthy donors; test: Measurement of anti-peptide IgG in plasma by LUMINEX multiplexed flow cytometric assay; assay type: binding, human; settings: serum of Uterine cervical Ca. patient #4, 1:100 dilution
Measured Fluorescence intesity values are reported for all entries that follow.

Field: example entries. Status: answers known.
seq text	measurement target	measured result
LFGEKTYLFL (SCCA 107-116 peptide) [SCCA-derived peptide, position 107-116]	peptide-specific IgG in sera of cancer patients and healthy donors	109
RFKVEESYDL (SCCA 286-295 peptide) [SCCA-derived peptide, position 286-295]	peptide-specific IgG in sera of cancer patients and healthy donors	229
KFMFDLFQQF (SCCA 10-19 peptide) [SCCA-derived peptide, position 10-19]	peptide-specific IgG in sera of cancer patients and healthy donors	5
EYLDAIKKF (SCCA 118-126 peptide) [SCCA-derived peptide, position 118-126]	peptide-specific IgG in sera of cancer patients and healthy donors	0
QFQKLLTEF (SCCA 84-92 peptide) [SCCA-derived peptide, position 84-92]	peptide-specific IgG in sera of cancer patients and healthy donors	29
AYELKIANKL (SCCA 98-107 peptide) [SCCA-derived peptide, position 98-107]	peptide-specific IgG in sera of cancer patients and healthy donors	0

Okay, next one:
Exercise: Record request: Fluorescence intesity value, item EFHCNHPFL (SCCA 362-370 peptide) [SCCA-derived peptide, position 362-370]
Solution: 0

###

tested on: peptide-specific IgG in sera of cancer patients and healthy donors; experiment: Measurement of anti-peptide IgG in plasma by LUMINEX multiplexed flow cytometric assay; type: binding, human; conditions: serum of Uterine cervical Ca. patient #23, 1:100 dilution
measured endpoint: Fluorescence intesity
// no unit string in output, number only

Example cases with answers are listed next.
seq text	measurement target	Fluorescence intesity
RFKVEESYDL (SCCA 286-295 peptide) [SCCA-derived peptide, position 286-295]	peptide-specific IgG in sera of cancer patients and healthy donors	60
LFGEKTYLFL (SCCA 107-116 peptide) [SCCA-derived peptide, position 107-116]	peptide-specific IgG in sera of cancer patients and healthy donors	75

Now for a further sequence.
Exercise: Query (sequence): AYELKIANKL (SCCA 98-107 peptide) [SCCA-derived peptide, position 98-107] ; field requested: Fluorescence intesity
Solution: 82

###

tested on: peptide-specific IgG in sera of cancer patients and healthy donors; experiment: Measurement of anti-peptide IgG in plasma by LUMINEX multiplexed flow cytometric assay; type: binding, human; settings: serum of Uterine cervical Ca. patient #11, 1:100 dilution
measured endpoint: Fluorescence intesity
Write no unit; give the number alone.

seq text	Fluorescence intesity
RFKVEESYDL (SCCA 286-295 peptide) [SCCA-derived peptide, position 286-295]	23

Exercise: What does the data say about its Fluorescence intesity? Entry: AYELKIANKL (SCCA 98-107 peptide) [SCCA-derived peptide, position 98-107]
Solution: 33

Exercise: And KFMFDLFQQF (SCCA 10-19 peptide) [SCCA-derived peptide, position 10-19] ?
Solution: 21

Exercise: What about this sequence? QFQKLLTEF (SCCA 84-92 peptide) [SCCA-derived peptide, position 84-92]
Solution: 23

Exercise: One more sequence: EYLDAIKKF (SCCA 118-126 peptide) [SCCA-derived peptide, position 118-126]
Solution: 20

Exercise: Note, next up: EFHCNHPFL (SCCA 362-370 peptide) [SCCA-derived peptide, position 362-370]
Solution: 28

Exercise: Now try LFGEKTYLFL (SCCA 107-116 peptide) [SCCA-derived peptide, position 107-116] .
Solution: 25
